B1: LARP4 (parent)
chain: WTVANMEEIKKLTTDPDLILEVLR

variants of: B1; test: protein stability index of a GFP-peptide fusion (GPS, HEK-293T) (PSI 1-6); higher = more stable; details: c terminus: a fixed tail appended;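 further: lentivirally expressed fusions sorted by FACS into six bins by GFP to DsRed ratio, PSI derived from sequencing read proportions per bin multiplied by bin number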
Documented protein stability index across a set of variants
Just the number.

Worked cases, answers included:
chain_sequence="WTVANMEEIKKLTTDPDNILEVLR [L18N]" reported=3.53
chain_sequence="WEVANMEEIKKLTTDPDLILEVLR [T2E]" reported=2.8
chain_sequence="WTVANMEEIKKLCTDPDLILEVLR [T13C]" reported=1.88
chain_sequence="WTVANMEEIKKLTADPDLILEVLR [T14A]" reported=2.08
chain_sequence="WTVANMEEDKKLTTDPDLILEVLR [I9D]" reported=2.76

Ask: May I ask what protein stability index has been recorded for WTVANMEEIKKLTTDPDLILEVRR [L23R] ?
Result: 2.47

Ask: May I ask what protein stability index has been recorded for WTVANMEEIKKLTTDPDLGLEVLR [I19G] ?
Result: 2.26

Ask: May I ask what protein stability index has been recorded for WTVANMEEIFKLTTDPDLILEVLR [K10F] ?
Result: 1.93

Ask: May I ask what protein stability index has been recorded for WTVANMEEIKKLTTDSDLILEVLR [P16S] ?
Result: 2.28

Ask: May I ask what protein stability index has been recorded for WTVANMEEIKKLQTDPDLILEVLR [T13Q] ?
Result: 1.58

Ask: May I ask what protein stability index has been recorded for WTVANMEYIKKLTTDPDLILEVLR [E8Y] ?
Result: 2.73

Ask: May I ask what protein stability index has been recorded for WTVANMEEFKKLTTDPDLILEVLR [I9F] ?
Result: 1.87

Ask: May I ask what protein stability index has been recorded for WTVANMEEIKKLTKDPDLILEVLR [T14K] ?
Result: 2.21

Ask: May I ask what protein stability index has been recorded for WTVANMEEIKKLTTDPDLILEVLF [R24F] ?
Result: 1.74

Ask: May I ask what protein stability index has been recorded for WTVANMEEIKKLTTDPDLIREVLR [L20R] ?
Result: 2.38
